- assay.comment: Metabolic stability in human liver microsomes (HLM)
- conditions: human
We'd kindly ask you to apply these microsomal CLint classes: bottom: < 20 µL/min/mg; middle: ≥ 20 µL/min/mg and < 60 µL/min/mg; top: ≥ 60 µL/min/mg

> print(dat)
                                   structure     cat
 1  N#C[C@@H]1CSCN1C(=O)CNC(=O)c1ccnc2ccc(N3CCC4(CC3)OCCCO4)cc12  bottom
 2  N#C[C@@H]1CSCN1C(=O)CNC(=O)c1ccnc2ccc(N3CCC4(CC4)C3)cc12  middle
 3  N#C[C@@H]1CSCN1C(=O)CNC(=O)c1ccnc2ccc(N3CC4(CC(C(F)(F)F)C4)C3)cc12  middle
 4  N#C[C@@H]1CSCN1C(=O)CNC(=O)c1ccnc2ccc(N3CC4(CC4)C3)cc12  middle
 5  N#C[C@@H]1CSCN1C(=O)CNC(=O)c1ccnc2ccc(N3CCC4(CC3)OCCO4)cc12  bottom
 6  CC1CC2(C1)CN(c1ccc3nccc(C(=O)NCC(=O)N4CSC[C@H]4C#N)c3c1)C2  middle
 7  N#C[C@@H]1CSCN1C(=O)CNC(=O)c1ccnc2ccc(N3CC4(CC(F)C4)C3)cc12  bottom
 8  N#C[C@@H]1CSCN1C(=O)CNC(=O)c1ccnc2ccc(N3CC4(CCS4)C3)cc12  middle
 9  N#C[C@@H]1CSCN1C(=O)CNC(=O)c1ccnc2ccc(N3CCC4(CCOCC4)CC3)cc12  middle
10  N#C[C@@H]1CSCN1C(=O)CNC(=O)c1ccnc2ccc(N3CC4(CCC4)C3)cc12  bottom
11  N#C[C@@H]1CSCN1C(=O)CNC(=O)c1ccnc2ccc(N3CC4(CC4)C[C@@H]3CF)cc12     top
12  N#C[C@@H]1CSCN1C(=O)CNC(=O)c1ccnc2ccc(N3CCC34CCC4)cc12     top
13  N#C[C@@H]1CSCN1C(=O)CNC(=O)c1ccnc2ccc(N3CCCC4(CC4)C3)cc12     top
14  N#C[C@@H]1CSCN1C(=O)CNC(=O)c1ccnc2ccc(N3CC4(CCCC4(F)F)C3)cc12  middle
15  N#C[C@@H]1CSCN1C(=O)CNC(=O)c1ccnc2ccc(N3CCC4(CCCCC4)OC3=O)cc12  middle
16  N#C[C@@H]1CSCN1C(=O)CNC(=O)c1ccnc2ccc(N3CCOC4(CCOCC4)C3)cc12  bottom
17  N#C[C@@H]1CSCN1C(=O)CNC(=O)c1ccnc2ccc(N3CC4(CCCC4)C3)cc12     top
18  CC1(C)COC12CN(c1ccc3nccc(C(=O)NCC(=O)N4CSC[C@H]4C#N)c3c1)C2  middle
19  N#C[C@@H]1CSCN1C(=O)CNC(=O)c1ccnc2ccc(N3CCC4(CC3)COC4)cc12  bottom
20  N#C[C@@H]1CSCN1C(=O)CNC(=O)c1ccnc2ccc(N3CCOCC34CCC4)cc12     top
21  N#C[C@@H]1CSCN1C(=O)CNC(=O)c1ccnc2ccc(N3CC4(COC4)C3)cc12  bottom

----------
- assay.comment: Metabolic stability in rat hepatocytes (rHep)
- conditions: n = 1 or geometric mean of n = 2-3
assay.readout: rHep CLint (μL/min/1E6)

> print(dat)
                                   molecule  unit.abbrev  reading
1  C[C@@H]1CN(c2ccc3nccc(C(=O)NCC(=O)N4CSC[C@H]4C#N)c3c2)C[C@H](C)[C@@H]1O   μL/min/1E6      2.6
2  C[C@@H]1CN(c2ccc3nccc(C(=O)NCC(=O)N4CSC[C@H]4C#N)c3c2)C[C@H](C)[C@]1(C)O   μL/min/1E6       11
3  N#C[C@@H]1CSCN1C(=O)CNC(=O)c1ccnc2ccc(N3CC(CC(F)F)C3)cc12   μL/min/1E6        7
4  N#C[C@@H]1CSCN1C(=O)CNC(=O)c1ccnc2ccc(N3CC(F)(c4ccccc4)C3)cc12   μL/min/1E6       26
5  N#C[C@@H]1CSCN1C(=O)CNC(=O)c1ccnc2ccc(N3CC(c4ccc(F)cc4)C3)cc12   μL/min/1E6       15
6  C[C@H]1CN(c2ccc3nccc(C(=O)NCC(=O)N4CSC[C@H]4C#N)c3c2)CCO1   μL/min/1E6        2
7  C[C@]1(F)CCN(c2ccc3nccc(C(=O)NCC(=O)N4CSC[C@H]4C#N)c3c2)C1 (mixture of isomers)   μL/min/1E6       22

Origin of measurements: patent US20230312550A1
